Reference source: ChEMBL document CHEMBL2029231

# System: Plasma
# ASSAY OVERVIEW: Plasma concentration in Sprague-Dawley rat at 30 mg/kg, ip
# Assay type: ADME, organism-based
# Design: dose 30 mg/kg, route intraperitoneal
# MEASUREMENT SETUP: in vivo
READOUT NAME: concentration (µM)
Note: unit µM is implicit; provide only the numeric part.

[ask] For the record COc1ccccc1-n1nc(C2CCN(S(C)(=O)=O)CC2)cc1-c1ccc(Cl)cc1 , what value of concentration is listed for Plasma?
[reply] 8.32

###

# ASSAY OVERVIEW: Half life in Sprague-Dawley rat at 2 mg/kg, iv
# Assay type: ADME, organism-based
# Set-up: dose 2 mg/kg, route intravenous
# MEASUREMENT SETUP: in vivo
READOUT NAME: half-life (h)
Supply the numeric figure in h, leaving out any unit text.

[ask] Form field: reported half-life of COc1ccccc1-n1nc(C2CCN(S(C)(=O)=O)CC2)cc1-c1ccc(Cl)cc1
[reply] 1.5

###

# ASSAY OVERVIEW: Inhibition of N-type calcium channel alpha1B/alpha2delta-1/beta1b assessed as inhibition of KCl-induced calcium mobilization by FDSS
I'd be grateful if you could share measured pIC50 for these entries.
Keep it numeric: pIC50 is minus log10 of the concentration in mol/L.

[ask] Recorded pIC50 of COc1ccccc1-n1nc(C2CCN(S(C)(=O)=O)CC2)cc1C1CCC(C)(C)CC1 , please.
[reply] 6.85

[ask] Quick one: pIC50 of COc1ccccc1-n1nc(C2CCN(S(=O)(=O)C(C)C)CC2)cc1-c1ccc(Cl)cc1 ?
[reply] 7.74

[ask] Reported pIC50, compound COc1ccccc1-n1nc(C2CCN(S(C)(=O)=O)CC2)cc1-c1ccc(N(C)C)cc1 : ____
[reply] 7.21

[ask] Value lookup for pIC50; key = CN(C)c1ccccc1-n1nc(C2CCN(S(C)(=O)=O)CC2)cc1-c1ccc(Cl)cc1
[reply] 7.89

[ask] Could you share which pIC50 value was measured for COc1ccccc1-n1nc(C2CCN(S(C)(=O)=O)CC2)cc1-c1ccc(Cl)cc1Cl ?
[reply] 7.82

[ask] What value of pIC50 has been recorded for this entry: COc1ccccc1-n1nc(C2CCN(S(C)(=O)=O)CC2)cc1-c1ccc(C(C)(C)C)cc1
[reply] 7.54

[ask] Please look up its pIC50: CC(C)Oc1ccccc1-n1nc(C2CCN(S(C)(=O)=O)CC2)cc1-c1ccc(Cl)cc1
[reply] 8.30

[ask] Look at this compound and give its reported pIC50. COc1ccccc1-n1nc(C2CCN(S(C)(=O)=O)CC2)cc1-c1ccc(Cl)s1
[reply] 7.03

###

Assign remaining at 10 min to each entry below.
# ASSAY OVERVIEW: Metabolic stability in rat liver microsomes assessed as compound remaining after 10 mins
# Format: ADME, Microsome
# MEASUREMENT SETUP: liver microsomes, read-out: Stability
Unit % implied. Number only.

[ask] # remaining at 10 min lookup, item CC(C)Oc1ccccc1-n1nc(C2CCN(S(C)(=O)=O)CC2)cc1-c1ccc(Cl)cc1
[reply] 5

[ask] If you can, please state the reported remaining at 10 min value of COc1ccccc1-n1nc(C2CCN(S(=O)(=O)C(F)(F)F)CC2)cc1-c1ccc(Cl)cc1 .
[reply] 100

[ask] // remaining at 10 min lookup, key: COc1ccccc1-n1nc(CCCO)cc1-c1ccc(Cl)cc1
[reply] 14
